Listed below: Ki values for each entry.
Target sequence: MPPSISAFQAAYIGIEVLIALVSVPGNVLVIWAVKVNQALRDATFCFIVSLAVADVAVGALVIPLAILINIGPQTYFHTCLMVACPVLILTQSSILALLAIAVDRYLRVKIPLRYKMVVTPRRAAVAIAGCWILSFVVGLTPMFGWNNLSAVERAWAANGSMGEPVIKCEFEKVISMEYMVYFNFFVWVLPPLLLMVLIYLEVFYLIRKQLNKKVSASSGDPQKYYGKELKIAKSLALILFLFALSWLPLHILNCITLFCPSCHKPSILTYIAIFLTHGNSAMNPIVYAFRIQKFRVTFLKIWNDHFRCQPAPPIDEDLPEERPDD
// unit must come after the numeric part

Recorded results for 6 compounds are shown here.
Cc1cc(-c2cc(-n3cc(C(N)=O)cn3)c(N)nc2-c2ccc(F)cc2)cc(Cl)n1 :: 4850 nM
Cc1ncnc2ccc(-c3cc(-c4cnn(CCC(N)=O)c4)c(N)nc3-c3ccc(F)cc3)cc12 :: 963 nM
Cc1ncnc2ccc(-c3c(C#N)cc(N)nc3-c3ccc(F)cc3)cc12 :: 205 nM
Cc1ccnc2ccc(-c3cc(-c4cnn(CCC(N)=O)c4)c(N)nc3-c3ccc(F)cc3)cc12 :: 146 nM
Cc1cc(-c2cc(-c3cnn(CCC(N)=O)c3)c(N)nc2-c2ccc(F)cc2)cc(Cl)n1 :: 1930 nM
Cc1ccnc2ccc(-c3cc(C(N)=O)c(N)nc3-c3ccc(F)cc3)cc12 :: 106 nM

Sample Cc1ncnc2ccc(-c3cc(-n4cc(C(N)=O)cn4)c(N)nc3-c3ccc(F)cc3)cc12 — what was its Ki?
3480 nM

Which Ki value is on record for COCCn1cc(-c2cc(-c3ccc4ncnc(C)c4c3)c(-c3ccc(F)cc3)nc2N)cn1 ?
316 nM

###

# test: Pharmacokinetics in rats, intravenous injection (IV)
# Type: in vivo
# condition details: male, SD, rat, 1 mg/kg, plasma
quantity measured: Cmax (ng/mL)
The answer is to be given in ng/mL; state only the numeric part.

Consider the reported Cmax for these compounds:
Cc1ncnc2ccc(-c3cc(-c4cnn(CCC(N)=O)c4)c(N)nc3-c3ccc(F)cc3)cc12 :: 3330
Cc1ncnc2ccc(-c3cc(-c4cnn(CC(C)(C)O)c4)c(N)nc3-c3ccc(F)cc3)cc12 :: 1340
Cc1ncnc2ccc(-c3cc(C(N)=O)c(N)nc3-c3ccc(F)cc3)cc12 :: 1250
CNC(=O)Cn1cc(-c2cc(-c3ccc4ncnc(C)c4c3)c(-c3ccc(F)cc3)nc2N)cn1 :: 2960

Okay, next one:
# lookup: Cmax of Cc1ncnc2ccc(-c3nnc(N)nc3-c3ccc(F)cc3)cc12 [Control compound 2, reference compound]
913

###

# target or test system: A2a receptor cell membrane (human origin) (Homo sapiens, UniProt P29274)
# Construct: purchased PerkinElmer RBHA2AM400UA
# Sequence (P29274 whole entry): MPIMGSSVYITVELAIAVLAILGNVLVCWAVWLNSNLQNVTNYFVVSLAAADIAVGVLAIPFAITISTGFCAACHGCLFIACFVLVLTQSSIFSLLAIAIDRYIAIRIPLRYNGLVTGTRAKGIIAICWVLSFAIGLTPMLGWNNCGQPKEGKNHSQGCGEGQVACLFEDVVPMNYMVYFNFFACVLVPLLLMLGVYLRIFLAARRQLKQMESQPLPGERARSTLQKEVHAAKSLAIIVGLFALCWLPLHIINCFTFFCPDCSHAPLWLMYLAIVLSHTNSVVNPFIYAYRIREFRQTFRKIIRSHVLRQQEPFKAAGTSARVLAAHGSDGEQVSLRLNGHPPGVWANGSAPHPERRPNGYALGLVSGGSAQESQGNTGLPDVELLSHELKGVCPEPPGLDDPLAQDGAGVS
# test: Competitive inhibition constant (Ki) for adenosine A2a receptor, [3H]-CGS-21680 radioligand binding
quantity measured: pKi
Recall that pKi is obtained by taking minus log10 of the concentration measured in molar.

Cc1ncnc2ccc(-c3cc(-c4cnn(CCC(N)=O)c4)c(N)nc3-c3ccc(F)cc3)cc12 [Compound 20] :: 7.85
Cc1cc(-c2cc(-c3cnn(CCC(N)=O)c3)c(N)nc2-c2ccc(F)cc2)cc(Cl)n1 [Compound 30] :: 7.29
Cc1ccnc2ccc(-c3cc(-c4cnn(CCC(N)=O)c4)c(N)nc3-c3ccc(F)cc3)cc12 [Compound 31] :: 8.80

API: the following record is the query input.
// returns reported pKi for input COCCn1cc(-c2cc(-c3ccc4ncnc(C)c4c3)c(-c3ccc(F)cc3)nc2N)cn1 [Compound 17]
8.64
